Entry source: ChEMBL document CHEMBL4665892

- test-summary: Protein binding in human plasma
- Assay type: ADME, cell-free
- details: read-out: PPB (converted)
metric-name: fraction unbound

* CCCCCCCCCC(=O)N[C@@H](Cc1c[nH]c2ccccc12)C(=O)N[C@H](CC(N)=O)C(=O)N[C@@H](CC(=O)O)C(=O)N[C@@H]1C(=O)NCC(=O)N[C@@H](CCCN)C(=O)N[C@@H](CC(=O)O)C(=O)N[C@H](C)C(=O)N[C@@H](CC(=O)O)C(=O)NCC(=O)N[C@H](CO)C(=O)N[C@@H]([C@H](C)CC(=O)O)C(=O)N[C@@H](CC(=O)c2ccccc2N)C(=O)O[C@@H]1C | 0.15
